test system: U-2932; test: growth inhibition by drug alone (1 - RLU/untreated control) (fraction); higher = stronger inhibition; conditions: 10 nM; time (day): 6; 177Lu-lilotomab satetraxetan 0 ug/ml
Use 0.3 as the dividing line for growth inhibition by drug alone, with the line itself on the rule met side and lower values as rule not met.

molecule=CC(=O)Nc1cccc(-n2c(=O)n(C3CC3)c(=O)c3c(Nc4ccc(I)cc4F)n(C)c(=O)c(C)c32)c1 qualitative_label="rule not met"
molecule=COc1cc2ncnc(Nc3ccc(F)c(Cl)c3)c2cc1NC(=O)/C=C/CN1CCCCC1 qualitative_label="rule not met"
molecule="Cc1ccc(-n2nc(C(C)(C)C)cc2NC(=O)Nc2ccc(OCCN3CCOCC3)c3ccccc23)cc1 [BIRB 796 (Doramapimod)]" qualitative_label="rule not met"
molecule=CCOc1ccn(-c2ccc(F)cc2)c(=O)c1C(=O)Nc1ccc(Oc2ccnc(N)c2Cl)c(F)c1 qualitative_label="rule not met"
molecule=CC[C@@H]1C(=O)N(C)c2cnc(Nc3ccc(C(=O)NC4CCN(C)CC4)cc3OC)nc2N1C1CCCC1 qualitative_label="rule met"
molecule="CC[C@@H]1/C=C(\\C)C[C@H](C)C[C@H](OC)[C@H]2O[C@@](O)(C(=O)C(=O)N3CCCC[C@H]3C(=O)O[C@H](/C(C)=C/[C@@H]3CC[C@H](Cl)[C@H](OC)C3)[C@H](C)[C@@H](O)CC1=O)[C@H](C)C[C@@H]2OC [Pimecrolimus]" qualitative_label="rule not met"

Lab note: next molecule to report on.
Ask: Say whether O=C(Nc1cccc(Cl)c1)Nc1ncc(CCNc2ncnc3ccsc23)s1 shows growth inhibition by drug alone of 0.3 or more.
Result: rule met

---

# key: entry, value: growth inhibition by drug plus 177Lu-lilotomab satetraxetan
system: U-2932; assay: growth inhibition by drug plus 177Lu-lilotomab satetraxetan (1 - RLU/untreated control) (fraction); higher = stronger inhibition; details: 10 nM; time (day): 4; 177Lu-lilotomab satetraxetan 1 ug/ml
Where a name gives a salt, the structure may show the parent alone.
Field format: numeric only.

Previously resolved entries follow.
compound="CCCCc1nc2cc(/C=C/C(=O)NO)ccc2n1CCN(CC)CC [SB939 (Pracinostat)]" recorded_value=0.113
compound="CCCC(CCC)C(=O)O [Valproic acid sodium salt (Sodium valproate)]" recorded_value=0.0448
compound="COc1cc2c(N3CCN(C(=O)Nc4ccc(OC(C)C)cc4)CC3)ncnc2cc1OCCCN1CCCCC1 [Tandutinib (MLN518)]" recorded_value=-0.0661

Kindly review the next compound as well.
Ask: Given the compound O=C(Nc1cccc(Cl)c1)Nc1ncc(CCNc2ncnc3ccsc23)s1 , what is its reported growth inhibition by drug plus 177Lu-lilotomab satetraxetan?
Result: 0.0714

---

# key: entry, value: growth inhibition by drug plus 177Lu-lilotomab satetraxetan
tested on: RIVA; test: growth inhibition by drug plus 177Lu-lilotomab satetraxetan (1 - RLU/untreated control) (fraction); higher = stronger inhibition; conditions: 10 nM; time (day): 3; 177Lu-lilotomab satetraxetan 0.5 ug/ml
Field format: numeric only.

Previously resolved entries follow.
compound=O=C(O)C1(C(=O)O)CCC1.[NH2-].[NH2-].[Pt+2] system_name=RIVA recorded_value=0.458
compound=Cc1ccc(Nc2nccc(N(C)c3ccc4c(C)n(C)nc4c3)n2)cc1S(N)(=O)=O system_name=RIVA recorded_value=0.437
compound="CC(C)n1c(/C=C/C(O)CC(O)CC(=O)O)c(-c2ccc(F)cc2)c2ccccc21 (stereo not drawn) [Fluvastatin sodium (Lescol)]" system_name=RIVA recorded_value=0.511
compound=Nc1ncn([C@@H]2O[C@H](CO)[C@@H](O)[C@H]2O)c(=O)n1 system_name=RIVA recorded_value=0.407

Kindly review the next compound as well.
Ask: Given the compound CC1(C)CNc2cc(NC(=O)c3cccnc3NCc3ccncc3)ccc21 [Motesanib Diphosphate] , what is its reported growth inhibition by drug plus 177Lu-lilotomab satetraxetan?
Result: 0.361
